Taken from PubChem BioAssay (NCATS).

procedure-details: qHTS profiling of the MIPE4 collection as inhibitors of Plasmodium falciparum (3D7) proliferation (AID 743344)
conditions-used: P. falciparum 3D7 in erythrocytes, SYBR Green DNA fluorescence, 72 h; at 28.5 µM unless noted
Each record's parasite growth, % of DMSO control is compared with bottom: < 40%; middle: ≥ 40% and < 90%; top: ≥ 90% to give its class.

compound	answer-label
O=c1[nH]cc(F)c(=O)[nH]1	middle
CCCC(C)(COC(N)=O)COC(=O)NC(C)C (stereo unspecified)	top

query: Returns: class label. Input: "NCC1(CC(=O)O)CCCCC1"
result: middle

query: Returns: class label. Input: "Cc1ccnc2c1NC(=O)c1cccnc1N2C1CC1"
result: top

query: Returns: class label. Input: O=C(OC1C[C@H]2CC[C@@H](C1)[N+]21CCCC1)C(O)(c1ccccc1)c1ccccc1 (stereo partly specified)
result: bottom

query: Returns: class label. Input: CNC(=O)N1N=C(c2ccc(N)cc2)c2cc3c(cc2CC1C)OCO3 (stereo unspecified)
result: top

query: Returns: class label. Input: "Cn1cc(C2=C(c3cn(C4CCN(Cc5ccccn5)CC4)c4ccccc34)C(=O)NC2=O)c2ccccc21"
result: bottom

query: Returns: class label. Input: "CNC(=O)c1ccc(N2C(=S)N(c3ccc(C#N)c(C(F)(F)F)c3)C(=O)C23CCC3)cc1F"
result: bottom

query: Returns: class label. Input: "CCn1cc(C(=O)O)c(=O)c2cc(F)c(N3CCNCC3)cc21"
result: middle

query: Returns: class label. Input: "COC[C@@H](NC(C)=O)C(=O)NCc1ccccc1"
result: top

query: Returns: class label. Input: "C[C@@H]1[C@@H](C(=O)C[C@H]2O[C@@H]3O[C@]4(C)CC[C@@H]5[C@H](C)CC[C@@H]([C@H]2C)[C@@]35OO4)O[C@@H]2O[C@]3(C)CC[C@H]4[C@H](C)CC[C@@H]1[C@@]24OO3"
result: bottom
